target: beta-catenin/TCF4 engagement (Homo sapiens, UniProt P35222); construct: expressed in transfected cells; host or cells: HEK293; assay: Nano-BRET target engagement assay (B-cat-Halo & TCF4-Luc in HEK293 cells); format: cell-based; conditions: absolute IC50; read-out: NanoBRET Abs IC50
Sequence (P35222 whole entry): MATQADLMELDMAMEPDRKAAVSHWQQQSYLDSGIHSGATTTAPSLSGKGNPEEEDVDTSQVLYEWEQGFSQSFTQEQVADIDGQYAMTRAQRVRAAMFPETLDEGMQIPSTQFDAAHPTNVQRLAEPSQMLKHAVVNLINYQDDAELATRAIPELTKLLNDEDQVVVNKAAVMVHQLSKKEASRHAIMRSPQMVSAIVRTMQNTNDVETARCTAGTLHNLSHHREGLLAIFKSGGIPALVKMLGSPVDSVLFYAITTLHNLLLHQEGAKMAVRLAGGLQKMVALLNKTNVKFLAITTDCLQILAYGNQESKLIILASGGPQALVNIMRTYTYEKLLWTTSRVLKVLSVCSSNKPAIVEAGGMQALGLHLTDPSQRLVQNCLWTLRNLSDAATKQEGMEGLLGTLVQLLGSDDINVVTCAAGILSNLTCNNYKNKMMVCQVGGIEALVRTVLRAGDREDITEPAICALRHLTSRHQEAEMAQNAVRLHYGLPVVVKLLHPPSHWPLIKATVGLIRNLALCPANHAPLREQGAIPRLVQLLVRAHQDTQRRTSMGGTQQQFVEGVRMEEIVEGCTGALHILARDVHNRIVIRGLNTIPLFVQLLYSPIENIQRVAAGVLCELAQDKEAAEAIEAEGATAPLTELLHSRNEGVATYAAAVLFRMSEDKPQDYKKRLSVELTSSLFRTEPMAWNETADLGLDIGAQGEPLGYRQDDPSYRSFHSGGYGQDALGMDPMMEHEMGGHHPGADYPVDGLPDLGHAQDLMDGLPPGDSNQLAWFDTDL
For each record, write down the corresponding pIC50.
One number for each entry, as −log10 of the molar value.

compound: CC(=O)N1CCC[C@]12CC=CCCCC1(CCCC=CCCCOC(=O)N3CC[C@@](C(=O)N[C@@H](Cc4ccccc4Cl)C(=O)N[C@@H](Cc4csc5ccccc45)C(=O)N[C@@H](CO)C(N)=O)(C3)NC(=O)[C@H]([C@@H](C)O)NC(=O)[C@H](Cc3ccccc3)NC(=O)[C@H](C)NC(=O)[C@H](C)NC(=O)[C@H](CC(N)=O)NC(=O)[C@H](CC(=O)O)NC1=O)NC(=O)[C@H](CC(C)(C)C)NC(=O)[C@H](CC(=O)O)NC2=O (some centres unmarked)
pIC50: 4.67

For the next question, use this compound.
INPUT: For CC(=O)N1CCC[C@]12CC=CCCCC1(CCCC=CCCCOC(=O)N3CC[C@@](C(=O)N[C@@H](Cc4ccccc4Cl)C(=O)N[C@@H](Cc4csc5ccccc45)C(=O)N[C@@H](CCC(N)=O)C(N)=O)(C3)NC(=O)[C@H](CC(N)=O)NC(=O)[C@H](Cc3ccccc3)NC(=O)[C@H](C)NC(=O)[C@H](C)NC(=O)[C@H](CN(CCCC(F)(F)F)CC(=O)O)NC(=O)[C@H](CC(=O)O)NC1=O)NC(=O)[C@H](CC(C)(C)C)NC(=O)[C@H](CC(=O)O)NC2=O (some centres unmarked) , what is its reported pIC50?
OUTPUT: 4.45

// provenance: patent US20240116985A1
